Assayed Target: Cyclin-dependent kinase 8 (Homo sapiens)
Measurement Notes: Inhibition of CDK8 in human SW480 cells assessed as reduction in IFN-gamma induced STAT1 phosphorylation at Ser727 residues preincubated for 2 hrs followed by IFN-gamma addition measured after 1 hr by In-cell western assay
pEC50: −log10 of the molar value.
Property Label: pEC50

COc1ncc(-c2ccncc2/C=C/C(=O)Nc2ccc(CN3CCOCC3)cc2)s1 = 7.92

[P] Cn1cc(-c2ccncc2/C=C/C(=O)Nc2ccc3c(c2)CN(CC(F)(F)F)CC3)cn1
[Q] Cn1cc(-c2ccncc2/C=C/C(=O)Nc2ccc(CN3CCC(F)(F)C3)cc2)cn1
Input line: Hey, between P and Q which has a smaller measured pEC50? Respond using the label that marks the chosen record.
Output line: Q
(Q: 7.77, P: 8.08)

----------
A collection of compounds and their measured solubility
Measurement Notes: Solubility of the compound at pH 6.8
Type: physicochemical
Conditions: buffer

CC1COCCN1Cc1ccc(NC(=O)/C=C/c2cnccc2-c2cnn(C)c2)cc1 (stereo not drawn) = > 75 µg/mL
O=C(/C=C/c1cnccc1-c1cnn(C2CC2)c1)Nc1ccc(CN2CC3CC2CO3)cc1 (stereo not drawn) = > 92 µg/mL

In the following, a different compound is considered.
Data point: "Cn1cc(-c2ccncc2/C=C/C(=O)Nc2ccc3c(c2)CCN(CC(F)(F)F)C3)cn1" ; solubility = > 81 µg/mL

----------
Assayed Target: UniProt P49336
Measurement Notes: Inhibition of CDK8 in human SW480 cells assessed as reduction in IFN-gamma induced STAT1 phosphorylation at Ser727 residues preincubated for 2 hrs followed by IFN-gamma addition measured after 1 hr by In-cell western assay
Property Label: EC50 (nM)

[1] O=C(/C=C/c1cnccc1-c1cncs1)Nc1ccc(CN2CCOCC2)cc1
[2] O=C(/C=C/c1cnccc1-c1cnn(C2CC2)c1)Nc1ccc2c(c1)CCN(CC(F)(F)F)C2
[3] Cn1cc(-c2cc(N)ncc2/C=C/C(=O)Nc2ccc(CN3CCOCC3)cc2)cn1
[4] Cn1cc(-c2ccncc2CCC(=O)Nc2ccc(CN3CCOCC3)cc2)cn1
[5] Cn1cc(-c2ccncc2/C=C/C(=O)Nc2ccc3c(c2)CCN(CC(F)(F)F)C3)cn1
Input line: // rank the listed molecules by EC50, lowest value first Present the labels in the sequence the task asks for.
Output line: 5, 2, 4, 1, 3
(5: 7 nM, 2: 14 nM, 4: 95 nM, 1: 140 nM, 3: 1300 nM)

----------
Assayed Target: CDK8/Cyclin C (Homo sapiens)
Sequence (P49336 whole entry): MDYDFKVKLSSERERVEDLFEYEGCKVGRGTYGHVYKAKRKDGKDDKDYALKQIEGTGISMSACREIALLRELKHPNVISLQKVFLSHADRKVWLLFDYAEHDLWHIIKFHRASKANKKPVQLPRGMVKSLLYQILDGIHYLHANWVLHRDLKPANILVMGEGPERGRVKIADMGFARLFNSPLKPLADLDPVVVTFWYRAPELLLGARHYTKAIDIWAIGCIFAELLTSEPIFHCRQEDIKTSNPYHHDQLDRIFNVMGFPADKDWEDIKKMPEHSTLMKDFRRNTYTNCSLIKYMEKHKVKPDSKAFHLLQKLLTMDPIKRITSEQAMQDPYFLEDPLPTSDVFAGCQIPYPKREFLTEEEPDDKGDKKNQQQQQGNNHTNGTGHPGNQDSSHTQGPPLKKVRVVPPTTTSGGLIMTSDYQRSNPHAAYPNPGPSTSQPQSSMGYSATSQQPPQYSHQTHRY
Sequence (P24863 whole entry, further chain): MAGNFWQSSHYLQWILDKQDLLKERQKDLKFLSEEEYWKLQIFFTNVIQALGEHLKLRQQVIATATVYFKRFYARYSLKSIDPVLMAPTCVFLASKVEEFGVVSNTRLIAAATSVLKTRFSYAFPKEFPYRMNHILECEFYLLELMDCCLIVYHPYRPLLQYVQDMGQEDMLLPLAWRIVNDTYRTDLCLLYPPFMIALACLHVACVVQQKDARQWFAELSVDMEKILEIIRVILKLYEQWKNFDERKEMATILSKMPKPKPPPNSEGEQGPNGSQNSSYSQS
Measurement Notes: Inhibition of kinase tracer 236 binding to full length N terminal GST-tagged human CDK8 (1 to 464 end residues) /CycC ( 1 to 283 end residues) expressed in baculovirus expression system after 60 min by TR-FRET assay
pIC50: −log10 of the molar value.
Property Label: pIC50

Previously resolved entries follow.
O=C(/C=C/c1cnccc1-c1cnn(C2CC2)c1)Nc1ccc(CN2CC(F)(F)C2)cc1 = 8.60
O=C(/C=C/c1cnccc1-c1cnn(C2CC2)c1)Nc1ccc(CN2CCOCC2)cc1 = 8.19
O=C(/C=C/c1cnccc1-c1ccc2[nH]cnc2c1)Nc1ccc(CN2CCOCC2)cc1 = 8.82
O=C(CCc1cnccc1-c1cnn(C2CC2)c1)Nc1ccc(CN2CCOCC2)cc1 = 7.54
Cn1cc(-c2ccncc2/C=C/C(=O)Nc2ccc(CN3CCOCC3)cc2)cn1 = 8.19

[A] Cn1cnc2cc(-c3ccncc3/C=C/C(=O)Nc3ccc(CN4CCOCC4)cc3)ccc21
[B] Cn1cc(-c2c(F)cncc2/C=C/C(=O)Nc2ccc(CN3CCOCC3)cc2)cn1
Input line: Which value of pIC50 is numerically greater: that of A or that of B ? Respond using the label that marks the chosen record.
Output line: B
(B: 8.28, A: 5.32)
